- Test system: DeltatarO mutant
- Protocol Description: S. aureus survival, RN4220 and DeltatarO strains – OD600, teichoic acid synthesis inhibitors, primary screen (AID 463173)
- Condition Summary: S. aureus RN4220 wild type/DeltatarO growth, OD600, 18 h, hits give low values, screened at 18.75 µg/mL (by protocol)
Out of some 52,000 compounds screened, about 4,300 (8.3%) were called active. The entries come from a sample that favours actives as a whole.
Observation Type: survival (%)
The reply should be a number in %, with the unit left off.

Data request: Quick one: survival of `Cc1cccc(CNC(=O)Cn2c(-c3cccs3)cc3ccccc32)c1` ?
Data returned: 116

Data request: Would you mind doing CC(C)N1C(=O)C(O)(c2c[nH]c3ccccc23)c2ccccc21 (stereo not given) as well?
Data returned: 129

Data request: Consider next the molecule CCN1C(=O)C(O)(c2c[nH]c3ccccc23)c2cc(Br)ccc21 (stereo not given) in the same way.
Data returned: 55

Data request: Another molecule to check: `Cc1ccc(F)cc1NC(=O)CSc1nc(-c2cccs2)cc(C(F)(F)F)n1`
Data returned: 68

Data request: Note, next up: CC1CCC(NC(=O)c2ccc3c(c2)N(Cc2ccccc2F)C(=O)c2ccccc2S3(=O)=O)CC1 (stereo not given)
Data returned: 74

Data request: // next record `CCOc1ccc(NC(=O)CCNS(=O)(=O)c2ccc3c(c2)CCCC(=O)N3)cc1`
Data returned: 66

Data request: Also need `COc1ccc2c(c1)c1c(c(=O)n(CCc3ccccc3)c(=O)n1Cc1cccc(Cl)c1)n2C` , thanks.
Data returned: 76

Data request: `O=C(COC(=O)c1ccco1)Nc1cccc2ccccc12` , same question.
Data returned: 97

Data request: Do the same for O=C1N(Cc2ccccc2)c2ccc(Cl)cc2C1(O)c1c[nH]c2ccccc12 (stereo not given) please
Data returned: 66

Data request: Another molecule: Cc1ccc(CN2C(=O)C(O)(c3c[nH]c4ccccc34)c3cc(Cl)ccc32)cc1 (stereo not given)
Data returned: -3

----------
- Tested on: DeltatarO mutant
- Protocol Description: S. aureus survival, RN4220 and DeltatarO strains – OD600, teichoic acid synthesis inhibitors, primary screen (AID 463173)
- Condition Summary: S. aureus RN4220 wild type/DeltatarO growth, OD600, 18 h, hits give low values, screened at 18.75 µg/mL (by protocol)
Screen size: about 52,000 compounds; about 4,300 (8.3%) were called active. The full list was thinned out, with actives kept by preference.
Provide the reported survival of each item.
Give the quantity in %, number only.

Data request: Form field: reported survival of `COc1ccc(CNC(=O)C2CCN(C(=O)c3ccc(-n4ccc5ccccc54)s3)CC2)cc1`
Data returned: 90

Data request: Would you mind doing `COc1ccc(OC)c(C(=O)CN2C(=O)N(c3ccc(C)cc3)S(=O)(=O)c3ccccc32)c1` as well?
Data returned: 89

Data request: Try this molecule too: `Cc1cc(C)nc(NC(=O)COc2ccc(Br)cc2)n1`
Data returned: 84

Data request: What about this molecule? `CC(C)CCNC(=O)CSc1nc2ccccc2nc1Cc1ccccc1`
Data returned: 82

Data request: Record: `CCCn1c(=O)c2sccc2n2c(CCCC(=O)NCc3ccccc3)nnc12`
Data returned: 83

Data request: Same question for `CN1CCN(c2nc3c(S(=O)(=O)c4ccccc4)nnn3c3ccsc23)CC1` please.
Data returned: 86

Data request: O=C(CSC1=NC2CCCCC2N1)N1CCOCC1 (stereo unspecified) , same question.
Data returned: 83

Data request: Would you kindly repeat that for Cc1cccc(NC(=O)C2CCCN(S(=O)(=O)c3cccc4nonc34)C2)c1C (stereo unspecified) ?
Data returned: 119

Data request: // same read-out, input: `COc1cccc(C(=O)N2CCN(CCc3ccncc3)CC2)c1`
Data returned: 87

Data request: Request: `CCn1cc(C(=O)N2CCN(c3ccc(OC)cc3)CC2)c(=O)c2cc(S(=O)(=O)N(C)C3CCCCC3)ccc21`
Data returned: 122

Data request: Now consider `O=C(Cn1cnc2c(nc3n2CCCCC3)c1=O)Nc1cccc(C(F)(F)F)c1` and answer again.
Data returned: 83

----------
Please go through the items and note down their survival.
- Test system: DeltatarO mutant
- Protocol Description: S. aureus survival, RN4220 and DeltatarO strains – OD600, teichoic acid synthesis inhibitors, primary screen (AID 463173)
- Condition Summary: S. aureus RN4220 wild type/DeltatarO growth, OD600, 18 h, hits give low values, screened at 18.75 µg/mL (by protocol)
The whole screen tested about 52,000 compounds, of which about 4,300 (8.3%) were called active. The sample as a whole holds a higher share of actives than the screen did.
Please reply with the bare figure in % and do not write the unit itself.

Data request: Any idea what survival was measured for `O=C(CSCc1nc2cccnc2n1C1CCCCC1)NCc1cccc(Br)c1` ?
Data returned: 105

Data request: Same lookup for `Cc1c(C(=O)NCc2ccccc2)sc2nc3n(c(=O)c12)CCCCC3` , please.
Data returned: 56

Data request: Also `Cc1ccc(-c2onc(C)c2C)cc1S(=O)(=O)NCc1ccco1` ?
Data returned: 87

Data request: // query: `Cc1ccc2c(c1)c(=O)c1ccccc1n2CCCC(=O)Nc1ccc(C)c(F)c1`
Data returned: 105

Data request: Same lookup for `Cc1c(C(=O)NCc2ccc(Cl)cc2)sc2nc3n(c(=O)c12)CCCCC3` , please.
Data returned: 51

Data request: Same again, this time with COc1ccc(CC(=O)N2CC(=O)Nc3ccc(F)cc3C2c2ccccc2)cc1 (configuration not stated)
Data returned: 79

Data request: // same read-out, input: `Cc1ccc(CNC(=O)CCCn2c(=O)c3ccccc3n(CC(=O)Nc3ccc(C)c(C)c3)c2=O)cc1`
Data returned: 78

Data request: Same again, this time with `O=c1c2sc3ccccc3c2n(Cc2cccc(F)c2)c(=O)n1Cc1ccccc1`
Data returned: 78

Data request: Moving on to `O=C(CSc1nnnn1Cc1ccccc1)NCCc1ccccc1`
Data returned: 89

Data request: Same read-out for `Cc1ccccc1Cn1ccn(-c2ccc(F)c(F)c2)c(=O)c1=O` ?
Data returned: 76

Data request: Repeat with `CC(C)c1ccc(Nc2cc(C(=O)NCCc3ccccc3)c3ccccc3n2)cc1`
Data returned: 81

Data request: Also need `Cc1ccc2nc(NC(=O)c3cc(=O)c4cc(Cl)ccc4o3)sc2c1` , thanks.
Data returned: 47

Data request: How about this compound: COc1ccc(CC(=O)N2CC(=O)Nc3ccc(Br)cc3C2c2ccc(F)cc2)cc1OC (configuration not stated)
Data returned: 175

Data request: How about this compound: CC(C)(SC1CC(=O)N(c2ccccc2)C1=O)C(N)C(=O)O (configuration not stated)
Data returned: 98

Data request: Also need `COc1ccc(-n2nnnc2SCC(=O)NCCc2ccccc2)cc1` , thanks.
Data returned: 53

Data request: Try the compound Cc1ccc2occ(CC(=O)N(Cc3ccc(Cl)cc3)C3CCS(=O)(=O)C3)c2c1 (configuration not stated)
Data returned: 64

Data request: Try this compound next: `CN(c1ccc(O)cc1)c1nc(-c2cccs2)cs1`
Data returned: 1

Data request: # repeat for `O=C(CCCn1c2ccccc2c(=O)c2ccccc21)Nc1cccc(Cl)c1`
Data returned: 27

Data request: Try the compound `O=C(CCCn1c2ccccc2c(=O)c2ccccc21)Nc1ccc(F)cc1Cl`
Data returned: 51

Data request: Same question for `COc1ccc2cc(C#N)c(N3CCCN(C(=O)/C=C/C(=O)O)CC3)nc2c1` please.
Data returned: 105

Data request: # iterate: `CCN(CC)CCNC(=O)c1sc2nc3n(c(=O)c2c1C)CCCCC3`
Data returned: 53

Data request: Try this compound too: `Cc1ccc(-c2onc(C)c2C)cc1S(=O)(=O)NCc1cccs1`
Data returned: 91

Data request: Continue with `Cc1ccc(C(=O)NCc2nnnn2-c2ccc(C)c(C)c2)cc1`
Data returned: 115

Data request: Okay, and `Cc1ccc(CNC(=O)c2sc3nc4n(c(=O)c3c2C)CCCC4)cc1` ?
Data returned: 80

Data request: What would you report for `Cc1ccc2c(=O)cc(C(=O)Nc3nc4ccc(Cl)cc4s3)oc2c1` ?
Data returned: 25

Data request: Quick one: `O=C(CCCn1c(=O)c2ccccc2n(CC(=O)Nc2cccc(Cl)c2)c1=O)NCc1ccc2c(c1)OCO2`
Data returned: 76

Data request: Also `Cc1cc(C)cc(NC(=O)Cn2c(=O)c3ccccc3n3nncc23)c1` , if possible.
Data returned: 83

Data request: Next up: O=C1CN(C(=O)Cc2ccc(F)cc2)C(c2ccccc2)c2cc(Cl)ccc2N1 (configuration not stated)
Data returned: 127

Data request: What do you have for Cc1ccc(-c2nnn(CC(=O)N(CC(=O)NCC3CCCO3)C3CCN(Cc4ccccc4)CC3)n2)o1 (configuration not stated) ?
Data returned: 83

Data request: Please do the same for Cc1cccc(CC(=O)N2CC(=O)Nc3ccc(F)cc3C2c2ccccc2)c1 (configuration not stated) as well.
Data returned: 53

Data request: Item: `CCCN(CCC)CCNC(=O)c1sc2nc3n(c(=O)c2c1C)CCCCC3`
Data returned: 62

Data request: For `Cc1cc(C)cc(NC(=O)CCCn2c(=O)c3cccn3c3ccccc32)c1` then?
Data returned: 59

Data request: How about this compound: CC(C(=O)NCCSCc1cccc(Cl)c1)N(c1ccccc1)S(C)(=O)=O (configuration not stated)
Data returned: 61

Data request: Proceed to `O=C(NC1CCN(Cc2nnnn2Cc2ccc3c(c2)OCO3)CC1)c1ccccc1F`
Data returned: 91

Data request: What about this compound? `COc1ccc(-c2onc(C)c2C)cc1S(=O)(=O)NCCc1ccccc1`
Data returned: 90

Data request: Next compound: O=C1CN(C(=O)Cc2ccccc2)C(c2ccc(F)cc2)c2cc(Br)ccc2N1 (configuration not stated)
Data returned: 61

Data request: // next record Cc1cccc(CC(=O)N2CC(=O)Nc3ccc(C)cc3C2c2ccc(F)cc2)c1 (configuration not stated)
Data returned: 50

Data request: Consider next the compound Cc1ccc2c(c1)C(c1ccccc1)N(C(=O)Cc1ccc(F)cc1)CC(=O)N2 (configuration not stated) in the same way.
Data returned: 55

Data request: Try the compound `COc1ccc(CCNS(=O)(=O)c2cc(-c3onc(C)c3C)ccc2OC)cc1OC`
Data returned: -1

Data request: What do you have for `Cc1ccc(-n2nnnc2CNC(=O)c2ccc(F)cc2)cc1C` ?
Data returned: 106

Data request: Now the same for `COc1ccccc1-c1nnc(C2CCN(C(=O)c3cccc(Cl)c3)CC2)o1`
Data returned: 88

Data request: What do you have for `Cc1ccccc1CN1c2ccccc2-c2nc(SCC(=O)Nc3cc(F)ccc3F)ncc2S1(=O)=O` ?
Data returned: 89
